target: JAK1 (Homo sapiens (Human), UniProt P23458); assay: Jak biochemical HTRF assay, JAK1; settings: JAK1 IC50 (nM), recombinant GST-tagged catalytic domain, [ATP] 31.8 μM
Sequence (P23458 875-1153): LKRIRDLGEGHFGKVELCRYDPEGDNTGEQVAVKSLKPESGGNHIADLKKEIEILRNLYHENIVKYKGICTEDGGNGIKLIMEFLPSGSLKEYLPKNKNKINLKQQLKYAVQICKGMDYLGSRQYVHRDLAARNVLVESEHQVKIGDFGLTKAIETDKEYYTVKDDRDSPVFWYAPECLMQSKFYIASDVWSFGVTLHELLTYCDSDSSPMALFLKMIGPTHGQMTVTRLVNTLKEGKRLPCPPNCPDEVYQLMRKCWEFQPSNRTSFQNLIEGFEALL
One threshold, 50 nM, splits the recorded IC50 values: lower ones are met, equal or higher ones are not met.

[
  {
    "compound": "N#CCC(C1CC1)n1cc(C(N)=O)c(Nc2ccc3ccncc3c2)n1 (stereo not shown)",
    "study.system": "JAK1 (Homo sapiens (Human), UniProt P23458)",
    "assigned.class": "met"
  },
  {
    "compound": "N#CC[C@@H](C1CCN(C(=O)OCc2ccccc2)CC1)n1cc(C(N)=O)c(Nc2ccc(F)cc2)n1 (single isomer, unassigned)",
    "study.system": "JAK1 (Homo sapiens (Human), UniProt P23458)",
    "assigned.class": "not met"
  },
  {
    "compound": "N#CCCc1cccc(Nc2nn(C(CC#N)C3CC3)cc2C(N)=O)c1 (stereo not shown)",
    "study.system": "JAK1 (Homo sapiens (Human), UniProt P23458)",
    "assigned.class": "met"
  },
  {
    "compound": "COc1cc(Nc2nn(C(CC#N)C3CC3)cc2C(N)=O)ccn1 (stereo not shown)",
    "study.system": "JAK1 (Homo sapiens (Human), UniProt P23458)",
    "assigned.class": "met"
  },
  {
    "compound": "N#CCC(C1CC1)n1cc(C(N)=O)c(Nc2ccc(C#N)cc2)n1 (stereo not shown)",
    "study.system": "JAK1 (Homo sapiens (Human), UniProt P23458)",
    "assigned.class": "met"
  },
  {
    "compound": "N#CCC(C1CCCC1)n1cc(C(N)=O)c(Nc2ccccc2)n1 (stereo not shown) [Example 1-20]",
    "study.system": "JAK1 (Homo sapiens (Human), UniProt P23458)",
    "assigned.class": "not met"
  },
  {
    "compound": "COCCOC(=O)N1CCC([C@H](CC#N)n2cc(C(N)=O)c(Nc3ccc(F)cc3)n2)CC1",
    "study.system": "JAK1 (Homo sapiens (Human), UniProt P23458)",
    "assigned.class": "not met"
  },
  {
    "compound": "CN1Cc2cc(Nc3nn(C(CC#N)C4CC4)cc3C(N)=O)ccc2C1=O (stereo not shown)",
    "study.system": "JAK1 (Homo sapiens (Human), UniProt P23458)",
    "assigned.class": "met"
  },
  {
    "compound": "Cc1nc(-c2ccc(Nc3nn(C(CC#N)C4CC4)cc3C(N)=O)cc2)no1 (stereo not shown)",
    "study.system": "JAK1 (Homo sapiens (Human), UniProt P23458)",
    "assigned.class": "not met"
  },
  {
    "compound": "CC(C)(C)OC(=O)CN1Cc2cc(Nc3nn(C(CC#N)C4CC4)cc3C(N)=O)ccc2C1=O (stereo not shown)",
    "study.system": "JAK1 (Homo sapiens (Human), UniProt P23458)",
    "assigned.class": "met"
  }
]

Incoming: In the record for N#CCc1ccc(Nc2nn(C(CC#N)C3CC3)cc2C(N)=O)cc1 (stereo not shown) , is IC50 less than 50 nM?
Outgoing: met

Incoming: Is it true that IC50 reported for N#CCC(C1CC1)n1cc(C(N)=O)c(Nc2cncc(C#N)c2)n1 (stereo not shown) is less than 50 nM?
Outgoing: not met

Incoming: Hello, is IC50 of the following compound strictly smaller than 50 nM? `N#CC[C@@H](C1CCN(C(=O)OC2COC2)CC1)n1cc(C(N)=O)c(Nc2ccc(F)cc2)n1`
Outgoing: not met

Incoming: Lab note: confirm whether the reported IC50 for this compound is below 50 nM, equality not counting. compound: N#CCC(C1CC1)n1cc(C(N)=O)c(Nc2ccc(S(=O)(=O)C(F)F)cc2)n1 (stereo not shown)
Outgoing: met

Incoming: Confirm or reject: IC50 of N#CCC(C1CC1)n1cc(C(N)=O)c(Nc2ccc(C(F)(F)F)cc2)n1 (stereo not shown) lies strictly below 50 nM
Outgoing: met

Incoming: For CC(C)(C)OC(=O)N1CCC(C(CC#N)n2cc(C(N)=O)c(Nc3ccccc3)n2)CC1 (stereo not shown) , is the recorded IC50 below the cut-off of 50 nM?
Outgoing: met

Incoming: Given the entry CC(C#N)Cn1cc(C(N)=O)c(Nc2ccc(F)cc2)n1 (stereo not shown) , would its reported IC50 be below 50 nM?
Outgoing: not met

Incoming: Check if IC50 falls below 50 nM for N#CCC(C1CCOCC1)n1cc(C(N)=O)c(Nc2ccccc2)n1 (stereo not shown) .
Outgoing: not met

Incoming: Is it true that IC50 reported for CC(C)(O)COCc1cccc(Nc2nn(C(CC#N)C3CC3)cc2C(N)=O)c1 (stereo not shown) is less than 50 nM?
Outgoing: met

Incoming: Would you kindly verify if IC50 of `N#CC[C@@H](C1CCN(C(=O)OCC2CC2)CC1)n1cc(C(N)=O)c(Nc2ccc(F)cc2)n1` is strictly less than 50 nM?
Outgoing: met

Incoming: Quick check: IC50 of N#CCC(C1CC1)n1cc(C(N)=O)c(Nc2ccc(-c3cnco3)cc2)n1 (stereo not shown) under 50 nM?
Outgoing: met

Incoming: # strict comparison: is reported IC50 < 50 nM? input = CC(C)(C)OC(=O)N1CCC(C(CC#N)n2cc(C(N)=O)c(Nc3ccc(F)cc3)n2)C1 (stereo not shown)
Outgoing: not met

Values compiled from patent US9493441B2.
